Values compiled from patent US20220002432A1.

target: T1, ICAM1 on the surface of DU145 cells (human, UniProt P05362 28-532); assay: flow cytometry, DU145 cells;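 note: purified antibodies in dilution series bound to cells for 1 h at 4 °C, detected with a fluorescent secondary antibody (1 h, 4 °C, dark), read by flow cytometry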
T1 construct: whole, on cells
T1 sequence (P05362 28-532): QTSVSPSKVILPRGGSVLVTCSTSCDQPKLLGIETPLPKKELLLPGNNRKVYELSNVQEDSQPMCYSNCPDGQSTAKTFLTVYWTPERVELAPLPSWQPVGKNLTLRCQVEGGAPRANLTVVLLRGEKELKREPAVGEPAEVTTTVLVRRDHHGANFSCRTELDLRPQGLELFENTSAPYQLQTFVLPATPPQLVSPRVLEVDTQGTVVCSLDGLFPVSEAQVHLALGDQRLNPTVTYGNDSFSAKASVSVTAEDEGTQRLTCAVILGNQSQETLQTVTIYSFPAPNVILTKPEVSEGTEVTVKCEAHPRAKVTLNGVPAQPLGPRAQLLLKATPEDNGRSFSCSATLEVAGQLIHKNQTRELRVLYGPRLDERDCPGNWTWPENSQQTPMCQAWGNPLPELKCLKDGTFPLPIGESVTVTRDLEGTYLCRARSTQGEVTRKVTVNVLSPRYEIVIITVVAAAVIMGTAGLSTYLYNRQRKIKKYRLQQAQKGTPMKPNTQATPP
Quantity Kind: EC50 (nM)
Report only the number, with the unit nM understood.

Binder	EC50 [nM]
15D10 (antibody, human IgG1, kappa, V domains shown, Rabbit-human chimeric anti-ICAM1: rabbit VH and VL on human IgG1 and kappa constant regions) VH: QSVEESGGRLVTPGTPLTLTCTASGFSLNNYYMSWVRQAPGKGLEWIGIISDSDNTYYASWAKGRFTISKTSTTVDLKITSPTTEDTATYFCARDWSLDSSSGYYYYDMDLWGPGTLVTVSA VL: AYDMTQTPASMEVAVGGTVTIKCQASQNIHSWLAWFQQKPGQPPKRLIYKASTLASGVPSRFKGSGSGTQFTLTISGVQSDDAATYYCQQGYSRSDGEHVFGGGTEVVVKR	0.879
2E3 (antibody, human IgG1, kappa, V domains shown, Rabbit-human chimeric anti-ICAM1: rabbit VH and VL on human IgG1 and kappa constant regions) VH: QSVEESGGGLVKPGGTLTLTCTVSGFSLSSYAMGWVRQAPGKGLEYIGIIGSSGSTYYASWAKGRFTISKTSTTVDLKITSPTTEDTATYFCVRDPYDSFGDGYRLWGPGTLVTVSS VL: AYDMTQTPASVEVAVGGTVTIKCQASENIYRYLLWYQQKLGQRPSLLIYDASKLASGVPSRFKGSGSGTEFTLTISGVQSDDAATYYCQQAYSSSNVDNAFGGGTEVVVKR	1.59

Which value of EC50 has been reported for 6G8 (antibody, human IgG1, kappa, V domains shown, Rabbit-human chimeric anti-ICAM1: rabbit VH and VL on human IgG1 and kappa constant regions) VH: QSVEESGGGLVKPGGTLTLTCTVSGFSLSSYAMGWVRQAPGKGLEYIGIIGSSGSTYYATWAKGRFTISKTSTTVDLKITSPTTEDTATYFCVRDPYDSYDAAYRLWGPGTLVTVSS VL: AYDMSQTPASVEVAVGGTVTIKCQASQSIYSYLSWYQQKPGQRPKLLIYDASKLASGVPSRFTGSGSGTEFTLTISGVQSDDAATYYCQQAYSSSNVDNVFGGGTEVVVKR in the records? 2.23
